# SYSTEM TESTED: T1, murine FPR1 (murine, UniProt P33766 1-364)
# T1 construct: formyl peptide receptor 1, mouse, overexpressed in HEK293 cells; also called murine formyl peptide receptor 1; source: HEK293 overexpressing FPRs, membrane debris
# T1 sequence (looked up): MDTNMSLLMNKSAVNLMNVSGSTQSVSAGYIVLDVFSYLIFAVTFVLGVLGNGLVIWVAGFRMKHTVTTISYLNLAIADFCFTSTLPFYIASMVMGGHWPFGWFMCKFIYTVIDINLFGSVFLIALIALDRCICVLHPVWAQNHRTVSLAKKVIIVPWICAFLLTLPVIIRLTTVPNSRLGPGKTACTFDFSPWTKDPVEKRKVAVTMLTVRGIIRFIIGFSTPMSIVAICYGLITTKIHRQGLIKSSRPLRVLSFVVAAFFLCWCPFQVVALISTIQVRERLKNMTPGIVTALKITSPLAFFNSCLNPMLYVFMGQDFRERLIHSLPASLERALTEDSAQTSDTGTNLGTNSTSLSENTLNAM
# METHOD SUMMARY: other fluorescence titration; saturation binding assay; BODIPY FL iodoacetamide-labelled SCIMP^N with membrane component (debris) of HEK293 cells overexpressing FPRs, black/clear bottom 96-well plate, quenching of the label on binding, excited at 370 nm, detected at 512 nm, measured for 4 min
# TEST PARAMETERS: one partner purified
Where no end group is shown, it is not given here.
ASSAY METRIC: pKd
pKd here: minus log base 10 of the concentration, concentration in moles per litre.

For MSWWRDNF (also: labeled with BODIPY FL iodoacetamide, site not given here, N-terminus peptide; source: synthetic peptide (chemically synthesized and purified; Chinese-Peptide-Company.Inc), purity more than 95%) [murine SCIMP N-terminus peptide (murine SCIMP^N)] the binder record lists pKd as 8.97
